- Test system: Mus musculus
- experiment_notes: AUC (0 to infinity) in CD1 mouse at 500 mg/kg, po
- Assay type: ADME, organism-based, Plasma
- Design: time infinity, dose 500 mg/kg, route oral
- condition_context: in vivo
assay_metric: AUC (µM·h)
Unit µM·h implied. Number only.

Request: What does the data say about its AUC? Entry: O=C(CCc1ccccc1)c1ccccc1OCC(O)CN1CCN(C(c2ccccc2)c2ccccc2)CC1 (stereo not drawn)
Result: 3.37

Request: Another: O=C(CCc1ccccc1)c1ccccc1OCC(O)CN1CCC(c2ccccc2)CC1 (stereo not drawn)
Result: 15.3

Request: Subsequent entry: O=C(CCc1ccc(F)cc1)c1ccccc1OCC(O)CN1CCN(C(c2ccccc2)c2ccccc2)CC1 (stereo not drawn)
Result: 4.08
